Entry source: patent US20260183405A1

- Tested on: HT29
- experimental protocol: Cytotoxicity in vitro in the presence and absence of elastase (MTT assay)
- Type: cell-based
- experimental context: HT29 cells; with 10 nM elastase (NE); 72 h incubation; read-out: IC50 with neutrophil elastase
reported metric: IC50

A selection of reference data follows.
compound | system name | assay value
CCCNC(=O)Nc1cccc(S(=O)(=O)Nc2cccc([C@@H](CC(=O)O)NC(=O)Nc3ccc(NC(=O)NCCOCCOCCOCCC(=O)N[C@@H](CC(=O)O)C(=O)N4CCC[C@H]4C(=O)N[C@H](C(=O)OCCCNC(=O)[C@H](Cc4ccccc4)NC(=O)[C@H](C)[C@@H](OC)[C@@H]4CCCN4C(=O)C[C@@H](OC)[C@H]([C@@H](C)CC)N(C)C(=O)[C@@H](NC(=O)[C@H](C(C)C)N(C)C)C(C)C)C(C)C)cc3)c2)c1 [Compound 30] | HT29 | 1 to 9.9 nM
CCc1c2c(nc3ccccc13)-c1cc3c(c(=O)n1C2)COC(=O)[C@@]3(CC)OC(=O)[C@@H](NC(=O)[C@@H]1CCCN1C(=O)[C@H](CC(=O)O)NC(=O)CCOCCOCCOCCNC(=O)CCC(=O)Nc1nnc(S(N)(=O)=O)s1)C(C)C [Compound 4] | HT29 | 10 to 99 nM

Problem: Returns the measured IC50 for the input compound. Input: CCCNC(=O)Nc1cccc(S(=O)(=O)Nc2cccc([C@@H](CC(=O)O)NC(=O)Nc3ccc(NC(=O)NCCOCCOCCOCCC(=O)N[C@@H](CC(=O)O)C(=O)N4CCC[C@H]4C(=O)N[C@H](C(=O)NCCCN(C(=O)CO)[C@@H](c4cc(-c5cc(F)ccc5F)cn4Cc4ccccc4)C(C)(C)C)C(C)C)cc3)c2)c1 [Compound 25]
Solution: 1 to 9.9 nM
